- Test system: Plasmodium falciparum
- method summary: GSK_TCMDC: Inhibition of Plasmodium falciparum Dd2 in whole red blood cells, using parasite LDH activity as an index of growth. Test compounds present at 2uM
- Format: functional
Consider the cut-off 90%. If the recorded Inhibition is strictly smaller, the label is condition met; if not, the label is condition not met.

Consider the worked cases shown below.
COc1ccc2nccc([C@@H](O)CN3CCC(NCc4cc5cccc6c5n(c4=O)CCC6)CC3)c2c1.O=C(O)C(=O)O    condition not met
C=CCn1c(SCC(=O)Nc2cc(Cl)ccc2Cl)nc2sc(C)cc2c1=O    condition not met
CCC(C)(C)C1CCc2nc(N)nc(N)c2C1.Cl (centres undefined)    condition not met

Problem: For the compound COc1cccc(O)c1CN1CCC2(CCCN(Cc3ccc(F)cc3)C2)C1 (centres undefined) , is Inhibition under 90%?
condition met

For "CCCc1cc(Cc2cnc(N)nc2N)cc(CC)c1OC.Cl" then?
condition met

For CC(C)CN1C(=O)c2ccccc2C(C(=O)Nc2cccc(C#N)c2)C1c1cccs1 (centres undefined) then?
condition not met

For "CN(C)CCNCc1ccc(-c2ccc(-c3nc4cc(F)ccc4[nH]3)cc2)cc1.O=C(O)C(F)(F)F" then?
condition not met

For "Nc1ccc(-c2ccc3ccnc(N)c3c2)cc1" then?
condition met

For "CN1CCCN(Cc2cccc(-c3ccc(NC(=O)c4ccc(Cl)cc4)cc3)c2)CC1.O=C(O)C(F)(F)F" then?
condition met

For "CCCN(CCCN(CCCN(CCC)C(C)C)c1cc(C)nc(Nc2ccc(Cl)cc2)n1)C(C)C.O=C(O)C(=O)O" then?
condition not met

For CC(C)C1C(O)=C(c2ccc3ccccc3c2)C(=O)N1Cc1ccsc1 (centres undefined) then?
condition met

For "Br.CC1(C)NC(N)=NC(=N)N1OCCCCCOc1ccccc1" then?
condition not met

For "COc1ccc2nccc([C@@H](O)CN3CCC(NC(=O)c4ccc(Oc5ccccc5)cc4)CC3)c2c1" then?
condition met

For "CC1=C(C(=O)OCCOCc2ccccc2)C(c2ccccc2C(F)(F)F)C(C(=O)OCCOCc2ccccc2)=C(C)N1" then?
condition met

For "CCN(CC)CCN(Cc1ccc(-c2ccc(C(F)(F)F)cc2)cc1)C(=O)Cn1c(CCc2ccccc2F)nc(=O)c2ccccc21.O=C(O)C(O)C(O)C(=O)O" then?
condition met

For "CO/C(=C\C=C\c1cc2cc(Cl)ccc2[nH]1)C(=O)NCCCN1CCN(c2cc(Cl)ccc2OC)CC1" then?
condition met

----------
- Test system: HepG2
- method summary: GSK_TCMDC: Percent inhibition of human HepG2 cell line. Test compounds present at 10uM.
- Format: functional
metric: Inhibition

Worked examples, 4 compounds total:
Cc1c(Cn2ncc(N3CCC(N)CC3)c(Cl)c2=O)cccc1NC(=O)Nc1ccc(-c2ccccc2)cc1.O=C(O)C(F)(F)F    19%
COc1ccc(Cl)cc1NC(=O)C(C)Nc1ccc(-c2ccccc2)cc1 (stereo not given)    0%
Br.Cc1cccc(OCCCCON2C(=N)N=C(N)NC2(C)C)c1C    65%
CC1CN(C(=O)c2sc3ccccc3c2Cl)CC(C)O1 (stereo not given)    0%

Bench note: what Inhibition did "Nc1nccc2ccc(-c3ccc(OCc4ccccc4)cc3)cc12.O=C(O)C(F)(F)F" show?
40%
